- target_under_test: human ether-à-go-go-related gene (hERG) potassium channel (human, UniProt Q12809);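 further: peak tail current of the secondary pulse compared with the same well before compound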
- Sequence (Q12809 whole entry, looked up): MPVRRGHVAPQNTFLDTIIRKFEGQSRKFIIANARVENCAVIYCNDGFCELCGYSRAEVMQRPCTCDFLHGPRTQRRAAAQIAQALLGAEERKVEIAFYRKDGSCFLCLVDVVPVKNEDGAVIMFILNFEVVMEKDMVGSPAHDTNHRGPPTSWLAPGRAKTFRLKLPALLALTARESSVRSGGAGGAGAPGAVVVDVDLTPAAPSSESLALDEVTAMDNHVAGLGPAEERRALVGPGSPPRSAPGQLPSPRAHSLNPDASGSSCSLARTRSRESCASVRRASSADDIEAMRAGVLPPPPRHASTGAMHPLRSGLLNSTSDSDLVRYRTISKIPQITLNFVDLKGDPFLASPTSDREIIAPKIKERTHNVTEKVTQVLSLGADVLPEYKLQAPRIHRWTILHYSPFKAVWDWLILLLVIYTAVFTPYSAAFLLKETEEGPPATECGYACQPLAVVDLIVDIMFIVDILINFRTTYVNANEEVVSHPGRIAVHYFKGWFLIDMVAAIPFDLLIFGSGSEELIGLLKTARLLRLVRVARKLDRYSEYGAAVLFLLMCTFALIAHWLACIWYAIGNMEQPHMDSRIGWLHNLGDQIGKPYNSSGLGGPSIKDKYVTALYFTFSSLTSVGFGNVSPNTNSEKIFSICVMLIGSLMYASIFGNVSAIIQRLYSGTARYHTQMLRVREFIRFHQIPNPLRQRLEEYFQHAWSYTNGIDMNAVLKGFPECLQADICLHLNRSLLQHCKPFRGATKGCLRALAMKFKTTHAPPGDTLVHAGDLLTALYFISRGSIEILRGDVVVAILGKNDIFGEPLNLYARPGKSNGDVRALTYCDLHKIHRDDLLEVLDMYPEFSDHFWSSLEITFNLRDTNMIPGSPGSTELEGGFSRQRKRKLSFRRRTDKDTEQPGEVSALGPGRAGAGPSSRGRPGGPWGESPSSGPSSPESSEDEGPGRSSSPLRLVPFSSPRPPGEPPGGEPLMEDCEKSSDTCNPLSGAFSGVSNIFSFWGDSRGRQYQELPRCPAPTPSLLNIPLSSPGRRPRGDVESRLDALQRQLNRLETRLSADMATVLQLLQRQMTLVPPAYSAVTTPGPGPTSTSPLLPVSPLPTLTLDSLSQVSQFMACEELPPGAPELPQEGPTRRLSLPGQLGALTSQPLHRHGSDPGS
- run_description: primary screen, population patch clamp on CHO cells stably expressing hERG; higher = less effect of the substance
- Protocol: Briefly, Chinese hamster ovary (CHO) cells stably expressing the hERG channel were dislodged from tissue culture flasks and dispensed into PPC plates. […] During the recording, background leak currents were estimated by a 100 ms step to -80 mV from an initial holding potential of -70 mV and subtracted from the subsequent current measurement. The campaign was conducted in two phases using slight differences in recording protocol. […]
Hit rate of the full screen: of about 310,000 compounds, about 14,000 (4.5%) showed an effect of 50% or more. Effects have a minus sign here. The sample holds strong results, similar compounds and a random draw of the others, so the mix is not that of the screen.
assay_endpoint: hERG current change (%, negative = inhibition) at 10uM

compound | measured_value
CC(C)N(CCNC(=O)COc1ccc2oc3c(c2c1)CCCC3)C(C)C | -73.3%
CC(=O)N1CCN(C(=O)COc2ccc3oc4c(c3c2)CCCC4)CC1 | -25.4%
CCc1ccc(-c2nc(CS(=O)CC(=O)NC3CCCCCC3)c(C)o2)cc1 (stereo not shown) | -7.44%
Cc1nn(Cc2ccccc2Cl)c(C)c1NC(=O)Cn1nc([N+](=O)[O-])c(Cl)c1C | 7.21%
COc1ccc(N(C)C(=O)c2cc3c(s2)-c2ccc(Cl)cc2S(=O)(=O)C3)c(OC)c1 | -58.5%
CNC(=O)COc1ccc2oc3c(c2c1)CCCC3 | 9.14%
C=CCn1c(O)c(N=NC(=O)CNC(=O)/C=C/c2ccco2)c2ccccc21 | -58.2%
CCOC(=O)N1CCN(C(=O)COc2ccc3oc4c(c3c2)CCCC4)CC1 | -50.6%
CCN(CC)CCCNC(=O)COc1ccc2oc3c(c2c1)CCCC3.Cl | -45.7%
CC(C)OCCCNC(=O)COc1ccc2oc3c(c2c1)CCCC3 | -4.97%

* * *

Below, each of the compounds is paired with its reported hERG current change (%, negative = inhibition) at 10uM value.
- target_under_test: human ether-à-go-go-related gene (hERG) potassium channel (human, UniProt Q12809);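 further: peak tail current of the secondary pulse compared with the same well before compound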
- run_description: primary screen, population patch clamp on CHO cells stably expressing hERG; higher = less effect of the substance
The whole screen tested about 310,000 compounds, of which about 14,000 (4.5%) showed an effect of 50% or more. The effect is printed as a negative number. Shown is part of a subset that was picked to be rich in strong results.
assay_endpoint: hERG current change (%, negative = inhibition) at 10uM (%)

compound | target_under_test | measured_value
CN1CCN(c2ccc(S(=O)(=O)N3CCCCC3)cc2NC(=O)CCc2ccccc2)CC1 | human ether-à-go-go-related gene (hERG) potassium channel (human, UniProt Q12809) | -53.3
COc1ccccc1CCC(=O)Nc1cc(S(=O)(=O)N2CCCCC2)ccc1N1CCN(C)CC1 | human ether-à-go-go-related gene (hERG) potassium channel (human, UniProt Q12809) | -26.5
O=C(Cc1c(F)cccc1Cl)Nc1cc(S(=O)(=O)N2CCCCC2)ccc1N1CCOCC1 | human ether-à-go-go-related gene (hERG) potassium channel (human, UniProt Q12809) | -52.2
Cc1nn(C)c(C)c1C(C)NC(=O)c1ccc(OC2CCN(Cc3ccccn3)CC2)cc1 (stereo not shown) | human ether-à-go-go-related gene (hERG) potassium channel (human, UniProt Q12809) | 18

meta.source: paper PMC4336329
